This collection of values is drawn from ChEMBL document CHEMBL1914339.

# reported pIC50; entries follow
Tested on: MCF7
Test: Antiproliferative activity against human MCF7 cells after 48 hrs by MTT colorimetric assay
Assay type: functional, cell-based
Settings: MCF7, 48 h
pIC50: −log10 of the molar value.

[
  {
    "LINE_NOTATION": "O=C(NS(=O)(=O)c1ccc(Br)cc1)c1ccncc1",
    "STUDY_TARGET": "MCF7",
    "pIC50": 5.06
  },
  {
    "LINE_NOTATION": "O=C(NS(=O)(=O)c1ccc(Br)cc1)c1ccccn1",
    "STUDY_TARGET": "MCF7",
    "pIC50": 5.17
  },
  {
    "LINE_NOTATION": "O=C(NS(=O)(=O)c1ccc(F)cc1)c1ccccn1",
    "STUDY_TARGET": "MCF7",
    "pIC50": 4.96
  }
]

* * *

Biological target: Prostaglandin G/H synthase 1 (Mus musculus) (UniProt P22437)
Sequence (P22437 whole entry, looked up): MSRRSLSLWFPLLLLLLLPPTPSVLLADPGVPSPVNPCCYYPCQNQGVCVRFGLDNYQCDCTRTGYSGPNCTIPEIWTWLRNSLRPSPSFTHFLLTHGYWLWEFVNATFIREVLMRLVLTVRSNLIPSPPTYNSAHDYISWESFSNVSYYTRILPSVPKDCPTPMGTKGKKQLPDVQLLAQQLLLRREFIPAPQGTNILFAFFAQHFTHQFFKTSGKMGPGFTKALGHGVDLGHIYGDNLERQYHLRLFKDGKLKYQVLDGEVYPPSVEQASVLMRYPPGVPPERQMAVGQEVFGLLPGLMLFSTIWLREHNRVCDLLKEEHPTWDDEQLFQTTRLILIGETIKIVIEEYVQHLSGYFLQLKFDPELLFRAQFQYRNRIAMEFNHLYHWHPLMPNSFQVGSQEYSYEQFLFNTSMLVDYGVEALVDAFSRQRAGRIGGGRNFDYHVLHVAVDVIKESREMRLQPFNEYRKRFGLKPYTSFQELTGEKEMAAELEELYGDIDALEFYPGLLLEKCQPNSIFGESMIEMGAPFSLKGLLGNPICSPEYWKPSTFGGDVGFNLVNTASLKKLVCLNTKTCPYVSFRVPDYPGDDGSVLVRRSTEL
REPORTED_PROPERTY: IC50 (µM)

[
  {
    "LINE_NOTATION": "O=C(NS(=O)(=O)c1ccc(Cl)cc1)c1ccccn1",
    "REPORTED_PROPERTY": "IC50",
    "RELATION_QUALIFIER": "=",
    "VALUE": 39.7
  },
  {
    "LINE_NOTATION": "O=C(NS(=O)(=O)c1ccc(Br)cc1)c1cccnc1",
    "REPORTED_PROPERTY": "IC50",
    "RELATION_QUALIFIER": "=",
    "VALUE": 40.5
  },
  {
    "LINE_NOTATION": "Cc1ccc(S(=O)(=O)NC(=O)c2ccccn2)cc1",
    "REPORTED_PROPERTY": "IC50",
    "RELATION_QUALIFIER": ">",
    "VALUE": 50
  },
  {
    "LINE_NOTATION": "O=C(NS(=O)(=O)c1ccc(Cl)cc1)c1cccnc1",
    "REPORTED_PROPERTY": "IC50",
    "RELATION_QUALIFIER": "=",
    "VALUE": 35.8
  },
  {
    "LINE_NOTATION": "O=C(NS(=O)(=O)c1ccc(Br)cc1)c1ccccn1",
    "REPORTED_PROPERTY": "IC50",
    "RELATION_QUALIFIER": ">",
    "VALUE": 50
  },
  {
    "LINE_NOTATION": "O=C(NS(=O)(=O)c1ccc(Br)cc1)c1cncc(C(=O)NS(=O)(=O)c2ccc(Br)cc2)c1",
    "REPORTED_PROPERTY": "IC50",
    "RELATION_QUALIFIER": "=",
    "VALUE": 42.5
  },
  {
    "LINE_NOTATION": "O=C(NS(=O)(=O)c1ccc(F)cc1)c1cncc(C(=O)NS(=O)(=O)c2ccc(F)cc2)c1",
    "REPORTED_PROPERTY": "IC50",
    "RELATION_QUALIFIER": "=",
    "VALUE": 40.2
  },
  {
    "LINE_NOTATION": "O=C(NS(=O)(=O)c1ccc(Cl)cc1)c1cccc(C(=O)NS(=O)(=O)c2ccc(Cl)cc2)n1",
    "REPORTED_PROPERTY": "IC50",
    "RELATION_QUALIFIER": "=",
    "VALUE": 41.5
  },
  {
    "LINE_NOTATION": "O=C(NS(=O)(=O)c1ccccc1)c1cccnc1",
    "REPORTED_PROPERTY": "IC50",
    "RELATION_QUALIFIER": ">",
    "VALUE": 50
  }
]

* * *

System: MCF7
Assay: Antiproliferative activity against human MCF7 cells after 48 hrs by MTT colorimetric assay
Format: functional, cell-based
Conditions: MCF7, 48 h
pIC50: −log10 of the molar value.
Measured pIC50 of individual entries

[
  {
    "LINE_NOTATION": "O=C(NS(=O)(=O)c1ccccc1)c1cccc(C(=O)NS(=O)(=O)c2ccccc2)n1",
    "pIC50": 5.03
  },
  {
    "LINE_NOTATION": "O=C(NS(=O)(=O)c1ccc(Cl)cc1)c1cccnc1",
    "pIC50": 5.00
  },
  {
    "LINE_NOTATION": "Cc1ccc(-c2cc(C(F)(F)F)nn2-c2ccc(S(N)(=O)=O)cc2)cc1",
    "pIC50": 4.39
  },
  {
    "LINE_NOTATION": "Cc1ccc(S(=O)(=O)NC(=O)c2cccnc2)cc1",
    "pIC50": 4.81
  },
  {
    "LINE_NOTATION": "O=C(NS(=O)(=O)c1ccc(Br)cc1)c1cccnc1",
    "pIC50": 5.08
  },
  {
    "LINE_NOTATION": "O=C(NS(=O)(=O)c1ccc(Br)cc1)c1cncc(C(=O)NS(=O)(=O)c2ccc(Br)cc2)c1",
    "pIC50": 5.39
  },
  {
    "LINE_NOTATION": "Cc1ccc(S(=O)(=O)NC(=O)c2ccncc2)cc1",
    "pIC50": 4.85
  },
  {
    "LINE_NOTATION": "O=C(NS(=O)(=O)c1ccc(Cl)cc1)c1ccccn1",
    "pIC50": 5.01
  },
  {
    "LINE_NOTATION": "Cc1ccc(S(=O)(=O)NC(=O)c2ccccn2)cc1",
    "pIC50": 4.93
  },
  {
    "LINE_NOTATION": "O=C(NS(=O)(=O)c1ccc(F)cc1)c1cccnc1",
    "pIC50": 4.97
  },
  {
    "LINE_NOTATION": "Cc1ccc(S(=O)(=O)NC(=O)c2cncc(C(=O)NS(=O)(=O)c3ccc(C)cc3)c2)cc1",
    "pIC50": 4.97
  },
  {
    "LINE_NOTATION": "O=C(NS(=O)(=O)c1ccc(Cl)cc1)c1ccncc1",
    "pIC50": 5.00
  },
  {
    "LINE_NOTATION": "O=C(NS(=O)(=O)c1ccccc1)c1cccnc1",
    "pIC50": 4.94
  },
  {
    "LINE_NOTATION": "O=C(NS(=O)(=O)c1ccc(F)cc1)c1cncc(C(=O)NS(=O)(=O)c2ccc(F)cc2)c1",
    "pIC50": 5.10
  },
  {
    "LINE_NOTATION": "O=C(NS(=O)(=O)c1ccccc1)c1cncc(C(=O)NS(=O)(=O)c2ccccc2)c1",
    "pIC50": 4.97
  },
  {
    "LINE_NOTATION": "O=C(NS(=O)(=O)c1ccc(F)cc1)c1cccc(C(=O)NS(=O)(=O)c2ccc(F)cc2)n1",
    "pIC50": 5.34
  },
  {
    "LINE_NOTATION": "O=C(NS(=O)(=O)c1ccc(Cl)cc1)c1cccc(C(=O)NS(=O)(=O)c2ccc(Cl)cc2)n1",
    "pIC50": 5.38
  },
  {
    "LINE_NOTATION": "O=C(NS(=O)(=O)c1ccc(Br)cc1)c1cccc(C(=O)NS(=O)(=O)c2ccc(Br)cc2)n1",
    "pIC50": 5.74
  },
  {
    "LINE_NOTATION": "O=C(NS(=O)(=O)c1ccc(F)cc1)c1ccncc1",
    "pIC50": 4.86
  },
  {
    "LINE_NOTATION": "Cc1ccc(S(=O)(=O)NC(=O)c2cccc(C(=O)NS(=O)(=O)c3ccc(C)cc3)n2)cc1",
    "pIC50": 5.21
  },
  {
    "LINE_NOTATION": "O=C(NS(=O)(=O)c1ccccc1)c1ccccn1",
    "pIC50": 4.97
  }
]

* * *

Target: Prostaglandin G/H synthase 2 (Mus musculus) (UniProt Q05769)
Sequence (Q05769 whole entry, looked up): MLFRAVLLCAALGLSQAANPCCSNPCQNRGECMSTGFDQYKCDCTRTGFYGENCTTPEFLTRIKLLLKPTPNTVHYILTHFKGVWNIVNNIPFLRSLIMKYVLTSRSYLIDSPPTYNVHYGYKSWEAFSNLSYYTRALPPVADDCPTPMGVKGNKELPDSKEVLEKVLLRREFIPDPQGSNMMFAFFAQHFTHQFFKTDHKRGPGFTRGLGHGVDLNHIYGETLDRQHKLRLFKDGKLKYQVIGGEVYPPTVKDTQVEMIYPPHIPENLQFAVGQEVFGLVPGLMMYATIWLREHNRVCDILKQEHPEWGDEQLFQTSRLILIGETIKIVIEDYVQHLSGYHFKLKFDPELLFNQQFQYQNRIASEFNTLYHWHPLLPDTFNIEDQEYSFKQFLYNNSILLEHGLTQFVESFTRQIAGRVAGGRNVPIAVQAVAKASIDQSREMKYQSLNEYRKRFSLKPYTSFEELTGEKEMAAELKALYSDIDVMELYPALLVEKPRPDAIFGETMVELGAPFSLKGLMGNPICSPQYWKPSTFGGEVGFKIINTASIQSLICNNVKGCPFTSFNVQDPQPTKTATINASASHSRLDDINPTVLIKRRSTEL
pIC50: −log10 of the molar value.

[
  {
    "LINE_NOTATION": "O=C(NS(=O)(=O)c1ccc(Br)cc1)c1cncc(C(=O)NS(=O)(=O)c2ccc(Br)cc2)c1",
    "pIC50": 5.55
  },
  {
    "LINE_NOTATION": "O=C(NS(=O)(=O)c1ccccc1)c1ccccn1",
    "pIC50": 5.06
  },
  {
    "LINE_NOTATION": "O=C(NS(=O)(=O)c1ccc(Cl)cc1)c1cccc(C(=O)NS(=O)(=O)c2ccc(Cl)cc2)n1",
    "pIC50": 5.72
  },
  {
    "LINE_NOTATION": "Cc1ccc(S(=O)(=O)NC(=O)c2cccnc2)cc1",
    "pIC50": 4.74
  },
  {
    "LINE_NOTATION": "O=C(NS(=O)(=O)c1ccc(F)cc1)c1cccc(C(=O)NS(=O)(=O)c2ccc(F)cc2)n1",
    "pIC50": 5.59
  },
  {
    "LINE_NOTATION": "Cc1ccc(S(=O)(=O)NC(=O)c2ccncc2)cc1",
    "pIC50": 4.71
  },
  {
    "LINE_NOTATION": "O=C(NS(=O)(=O)c1ccc(Br)cc1)c1ccccn1",
    "pIC50": 5.44
  },
  {
    "LINE_NOTATION": "O=C(NS(=O)(=O)c1ccccc1)c1cccc(C(=O)NS(=O)(=O)c2ccccc2)n1",
    "pIC50": 5.43
  },
  {
    "LINE_NOTATION": "O=C(NS(=O)(=O)c1ccc(Cl)cc1)c1ccccn1",
    "pIC50": 5.22
  },
  {
    "LINE_NOTATION": "O=C(NS(=O)(=O)c1ccccc1)c1cncc(C(=O)NS(=O)(=O)c2ccccc2)c1",
    "pIC50": 5.10
  },
  {
    "LINE_NOTATION": "O=C(NS(=O)(=O)c1ccc(F)cc1)c1cncc(C(=O)NS(=O)(=O)c2ccc(F)cc2)c1",
    "pIC50": 5.25
  },
  {
    "LINE_NOTATION": "O=C(NS(=O)(=O)c1ccc(F)cc1)c1cccnc1",
    "pIC50": 4.93
  }
]
